These data points were gathered from PubChem BioAssay.

z-score overview
procedure.summary: yeast growth modulation, basal conditions, primary screen, YJM789 clinical isolate, OD600, 24 h (AID 1089);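 note: growth of clinical yeast isolate S. cerevisiae YJM 789 seeded 1000 cells per well; test concentration not given here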
measurement.setup: S. cerevisiae YJM789 growth, higher = more signal, called active from +8 up or from −8 down
Calls of active or inactive are those of the source.
quantity.measured: z-score

* CCCCCN1CC=CC23O[C@@H]4/C=C\CCC(C)OC(=O)C4[C@H]2C(=O)N(C(C)CO)[C@@H]3C1=O (stereo partly drawn) | 0.255 (inactive)
* C=CCN1C(=O)[C@]2(O[C@H](CCn3cc([C@H](O)c4ccccc4)nn3)[C@@H]([Si](C)(C)c3ccc(OC)cc3)[C@@H]2C)c2cc(N3CCC3=O)ccc21 | 0.487 (inactive)
* C=CCOC(=O)[C@@H]1[C@H]2C(=O)O[C@H](c3ccccc3)[C@H](c3ccccc3)N2[C@H](c2ccc(OCCOC(=O)[C@@H]3C[C@@H]4C(=O)NCC(=O)N4[C@@H]3c3ccc(O)cc3)cc2)[C@@]12C(=O)Nc1ccc(I)cc12 | 0.218 (inactive)

###

composite z-score overview
study.system: Pro-neuregulin-1, membrane-bound isoform (Homo sapiens)
procedure.summary: NRG1 binders on small-molecule microarrays, primary screen, psychiatric disease protein project, biochemical, small-molecule microarray, fluorescence 635/667 (AID 1075);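 note: score combines 667 nm spot fluorescence with signal to noise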
measurement.setup: NRG1 binding, 635 nm fluorescence, higher = more signal
quantity.measured: composite z-score

* CN1C(=O)C2C=CC(C(O)C#Cc3ccccc3)N(N3CCCCC3)C2C1=O (centres undefined) | 1.19
* Cc1ccc(S[C@]2(C(=O)NCCCN(C)C)CC(=O)N(Cc3ccccc3C(F)(F)F)[C@@H]2c2ccc(CO)cc2)cc1 | 0.907
* COCCOC(=O)N1C(=O)[C@@]2(c3cc(C#CCC(C(=O)OC)C(=O)OC)ccc31)[C@H](c1ccccc1OCCO)N1[C@H](c3ccccc3)[C@H](c3ccccc3)OC(=O)[C@H]1[C@@H]2C(=O)NC[C@H](O)c1ccccc1 | 1.27
* [N-]=[N+]=NCc1ccccc1[C@@H]1OC(c2ccc(OCCCO)cc2)=N[C@]1(Cc1ccccc1)C(N)=O | 1.99

###

System: Chordin-like protein 2 (CHRDL2)
procedure.summary: CHRDL2 small-molecule binders, primary screen, biochemical, small-molecule microarray, 635 nm fluorescence (AID 1126);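 note: printed compound slides probed with Chrdl2 protein at 4 µg/mL for 1 h at 4 C; score merges 667 nm emission intensity with signal to noise over three replicate slides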
measurement.setup: small-molecule microarray binding, fluorescence 635 nm; higher = more signal
composite z-score overview
quantity.measured: composite z-score

• COc1ccc([C@H]2OC[C@@H]3C[C@@H](Cc4ccccc4)C(=O)N32)cc1 = 0.377
• COc1ccccc1CN1C(=O)c2ccccc2[C@@]2(Cc3ccccc3N(CC(C)C)C2=O)[C@@H]1c1ccc(CO)cc1 = -0.238
• O=C1OCCC/C=C\[C@H]2OC34C=CCN(Cc5ccccc5)C(=O)[C@H]3N(CCCO)C(=O)[C@@H]4C12 (stereo partly drawn) = -1.79
• COCCOC(=O)N1C(=O)[C@@]2(c3ccccc31)[C@H](C(=O)N1CCc3cc(OC)c(OC)cc3C1)[C@H]1C(=O)O[C@H](c3ccccc3)[C@H](c3ccccc3)N1[C@@H]2c1ccc(OCCO)cc1 = 0.417
• C=C[C@@H](COC(=O)OC(C)(C)C)N(Cc1ccc(OC)cc1)S(=O)(=O)c1ccc(Br)cc1 = 0.708
• COc1cc2c(cc1OC)CN(C(=O)[C@H]1[C@@H]3C(=O)O[C@@H](c4ccccc4)[C@@H](c4ccccc4)N3[C@@H](c3ccc(O)cc3)[C@]13C(=O)Nc1ccccc13)CC2 = 0.139
• COCCOC(=O)N1C(=O)[C@@]2(c3cc(C#CCC(C(=O)OC)C(=O)OC)ccc31)[C@H](c1ccccc1OCCO)N1[C@H](c3ccccc3)[C@H](c3ccccc3)OC(=O)[C@H]1[C@@H]2C(=O)N1CCN(c2ncccn2)CC1 = 1.04
• CCOC(=O)C[C@H]1[C@H](OC(=O)c2ccc(-c3ccccc3)cc2)[C@@H](NC(=O)Cc2ccc(OC)cc2)c2cc(OCCCO)ccc2N1C(=O)c1ccccc1 = -0.348
• CN1C=C(C(=O)OCCS(C)(=O)=O)C(C(=O)OCCS(C)(=O)=O)=CC(c2ccc(CO)cc2)=CC1C1CC1 (stereo not drawn) = -0.246
• COc1ccc(CCNC(=O)[C@@]2(C)c3ccccc3C(=O)N(C(C)C)[C@H]2c2ccc(CO)cc2)cc1 = 0.397
• COc1cc(Br)cc(C(O)C2C=CC3C(=O)N(C)C(=O)C3N2N2CCCCC2)c1OC (stereo not drawn) = -1.39
• COc1ccc(/C=C/C=O)cc1 = 0.309
• Cc1ccc(S[C@]2(C(=O)NCCCN(C)C)CC(=O)N(Cc3cc(C(F)(F)F)cc(C(F)(F)F)c3)[C@@H]2c2ccc(CO)cc2)cc1 = -0.869
• COc1cc2c(cc1OC)CN(C(=O)[C@@H]1[C@H]3C(=O)O[C@H](c4ccccc4)[C@H](c4ccccc4)N3[C@H](c3ccc(O)cc3)[C@@]13C(=O)Nc1ccccc13)CC2 = 0.257
• CC(C)C(O)C1C=CC2C(=O)NC(=O)C2N1Nc1ccc(Cl)cc1Cl (stereo not drawn) = -0.827
• CC(C)NC(=O)[C@@]1(C)c2ccccc2C(=O)N(Cc2cc(C(F)(F)F)cc(C(F)(F)F)c2)[C@H]1c1ccc(CO)cc1 = -1.39
• COCC(=C=CC[C@@H](O)c1cccc(OCCO)c1)C[C@@H](O)c1ccccn1 = 0.188
• C=C(COC)C(=O)CC[C@@H](OC(C)=O)c1ccc(CO)o1 = 1.13
• CC(CO)N1C(=O)[C@@H]2C3C(=O)OCCC/C=C\[C@H]3OC23C=CCN(C(C)(C)C)C(=O)[C@@H]13 (stereo partly drawn) = -0.184
• COc1ccc(C(O)C2C=CC3C(=O)N(Cc4ccccc4)C(=O)C3N2n2cnnc2)cc1OCc1ccccc1 (stereo not drawn) = -0.34
• NC(=O)NCC#Cc1ccc2c(c1)[C@]1(C(=O)N2)[C@H](C(=O)Nc2nc3ccccc3s2)[C@H]2C(=O)O[C@H](c3ccccc3)[C@H](c3ccccc3)N2[C@@H]1c1ccccc1OCCO = 0.277
• C=CCOC(=O)[C@H]1[C@@H]2C(=O)O[C@@H](c3ccccc3)[C@@H](c3ccccc3)N2[C@@H](c2ccc(OCCOC(=O)[C@@H]3C[C@@H]4C(=O)N[C@@H](CCCCNC(C)=O)C(=O)N4[C@@H]3c3ccc(O)cc3)cc2)[C@]12C(=O)Nc1ccccc12 = 1
• COC(=O)[C@H](Cc1ccccc1)N1CC2=C[C@@H](C3CC3)n3c(=O)n(C)c(=O)n3[C@H]2[C@@H]1[C@@H](O)Cc1ccccc1 = 0.162
• CC(C)=CCCC(C)=CC(O)C1C=CC2C(=O)N(C)C(=O)C2N1Nc1ccccc1 (stereo not drawn) = 1.28
• CC1(C)C2C=C(C(O)C3C=CC4C(=O)NC(=O)C4N3Nc3ccc(Cl)cc3Cl)C[C@@H]1C2 (stereo partly drawn) = 0.061
• C=C(C)[C@@H]1CC=C(C(O)C2C=CC3C(=O)N(C)C(=O)C3N2Nc2ccccc2)CC1 (stereo partly drawn) = 1.38
• O=C(CS)NCCCCCCNC(=O)[C@@H]1C[C@@H]2C(=O)N[C@@H](Cc3ccccc3)C(=O)N2[C@@H]1c1cccc(OCCO)c1 = 0.892
• CCOC(=O)C[C@H]1[C@H](OC(=O)c2ccc(C(=O)c3ccccc3)cc2)[C@@H](NC(=O)CC(C)C)c2cc(OCCCO)ccc2N1C(=O)c1ccc2ccccc2n1 = 0.448

###

z-score overview
procedure.summary: fission yeast growth modulation, primary screen, strain 972, OD600, 24 h, no modulator (AID 1090);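 note: basal condition with compound alone and no growth modifier present; test concentration not given here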
measurement.setup: S. pombe 972 growth, higher = more signal, called active from +8 up or from −8 down
quantity.measured: z-score

• Cc1ccc([C@@H]2C[C@@H](Sc3ccccc3)[C@H](C(=O)O)CN2S(=O)(=O)c2ccc(C)cc2)cc1 = 0.565
• [N-]=[N+]=Nc1ccccc1[C@H]1OC(c2ccc(OCCCO)cc2)=N[C@@]1(CCS(=O)(=O)c1ccccc1)C(N)=O = -2.33
• CCC(CC)C(O)C1C=CC2C(=O)NC(=O)C2N1Nc1ccc(Cl)cc1Cl (stereo not given) = -5.81
• C=CCNC(=O)[C@H]1[C@@H]2C(=O)O[C@@H](c3ccccc3)[C@@H](c3ccccc3)N2[C@@H](c2ccccc2OCCO)[C@]12C(=O)Nc1ccc(C#CCCO)cc12 = -0.648
• C=CCOC(=O)[C@H]1[C@@H]2C(=O)O[C@@H](c3ccccc3)[C@@H](c3ccccc3)N2[C@@H](c2ccc(OCCOC(=O)[C@H]3C[C@H]4C(=O)N[C@@H](CCCCN(C)C)C(=O)N4[C@H]3c3ccc(O)cc3)cc2)[C@]12C(=O)Nc1ccc(I)cc12 = -0.526

###

procedure.summary: PSAC antagonists in infected red cells, primary screen, cell-based, P. falciparum Indochina, OD700, 18 h (AID 1157)
measurement.setup: P. falciparum Indochina infected erythrocytes, osmotic lysis OD700, 18 h; higher = more signal, called active from +8 up or from −8 down
quantity.measured: z-score

* CCOC(=O)C1=C[C@@H](C(C)(C)C)N(S(=O)(=O)c2ccc(C)cc2)[C@H]1c1ccc(F)cc1 | 0.634
* O=C1NC(=O)C2C1C=CC(C(O)c1cc(C(F)(F)F)cc(C(F)(F)F)c1)N2Nc1ccccn1 (centres undefined) | 0.827
* CC[C@@H]1C=C(C(=O)O)[C@H](c2ccc(Br)cc2)N1S(=O)(=O)c1ccc(C)cc1 | 0.658
* CN(C)CCCCCCNC(=O)[C@H]1C[C@H]2C(=O)N3CCC[C@H]3C(=O)N2[C@H]1c1ccc(O)cc1 | 0.253
* Cc1ccccc1C(O)C1C=CC2C(=O)N(c3ccccc3)C(=O)C2N1Nc1ccc(C(C)C)cc1 (centres undefined) | 0.974
* C=CCC(OC(C)=O)[C@@H]1[C@@H](N(Cc2ccc(-c3cccc(C(F)(F)F)c3)o2)C(=O)c2ccc(C)cc2)c2cc(OCCCO)ccc2N1C(=O)Cc1ccc2ccccc2c1 (some centres undefined) | 0.825
* CCOC(=O)C[C@H]1[C@H](OC(=O)c2ccc(C(=O)c3ccccc3)cc2)[C@@H](NC(=O)CC(C)C)c2cc(OCCCO)ccc2N1C(=O)c1ccc2ccccc2n1 | -0.135
* NCCCCCNC(=O)[C@@H]1C[C@@H]2C(=O)N[C@@H](Cc3ccccc3)C(=O)N2[C@@H]1c1ccc(O)cc1 | -0.116
* CC(=O)NCCCC[C@@H]1NC(=O)[C@H]2C[C@@H](C(=O)NCCCCCCNC(=O)CS)[C@@H](c3ccc(O)cc3)N2C1=O | 0.301
* CC(C)C[C@@H]1NC(=O)[C@@H]2C[C@H](C(=O)NCc3ccc(F)cc3)[C@H](c3cccc(OCCO)c3)N2C1=O | 0.546
* C=CCOC(=O)[C@H]1[C@@H]2C(=O)O[C@@H](c3ccccc3)[C@@H](c3ccccc3)N2[C@@H](c2ccc(OCCOC(=O)[C@H]3C[C@H]4C(=O)N[C@@H](CCCCNC(C)=O)C(=O)N4[C@H]3c3cccc(OCCO)c3)cc2)[C@]12C(=O)Nc1ccccc12 | 1.01
* C[N+](C)(C)CCCC[C@@H]1NC(=O)[C@H]2C[C@@H](C(=O)NCCCCCCNC(=O)CS)[C@@H](c3cccc(OCCO)c3)N2C1=O | 0.0805
* O[C@@H](Cc1ccccc1)[C@H]1C2C=CCCC=C2CN1Cc1cccc(Cl)c1 (some centres undefined) | 0.108
* Cc1ccc(N2C(=O)c3ccccc3[C@@H](C(=O)NC3CC3)[C@@H]2c2ccc(CO)cc2)nc1 | -0.0389
* C=CCN1C(=O)[C@@]2(CC=C)N=C(c3ccc(OCCCO)cc3)O[C@H]2c2ccccc21 | 9.88
* CC(C)=CCCC(C)=CC(O)C1C=CC2C(=O)N(C)C(=O)C2N1Nc1ccccc1 (centres undefined) | 1.93
* CC(C)[Si]1(C(C)C)O[C@@H](c2ccccc2)c2cc(-c3ccc(-c4ccc(Cl)c(Cl)c4)o3)nc(-c3ccccc3)c21 | 0.656
* CCCCCN1CC=CC23O[C@@H]4C=CCCOC(=O)C4[C@H]2C(=O)N(CCCCCO)[C@@H]3C1=O (some centres undefined) | 0.575
* COc1ccc(-c2cc3c(c(-c4ccc(Oc5ccccc5)cc4)n2)[Si](C(C)C)(C(C)C)OC3)cn1 | 0.85
* COCCOC(=O)N1C(=O)[C@@]2(c3cc(C#CCC(C(=O)OC)C(=O)OC)ccc31)[C@H](c1ccccc1OCCO)N1[C@H](c3ccccc3)[C@H](c3ccccc3)OC(=O)[C@H]1[C@@H]2C(=O)N1CCN(c2ncccn2)CC1 | 0.851
* CN(C)CCCC[C@@H]1NC(=O)[C@@H]2C[C@H](C(=O)NCCCCCCN)[C@H](c3cccc(OCCO)c3)N2C1=O | 0.105
* CC(C)OC(=O)C=C1C[C@@H](c2ccccn2)O[C@@H](c2ccccn2)O1 | 0.562
* COc1ccc([C@H]2OC[C@@H]3C[C@@H](Cc4ccccc4)C(=O)N32)cc1 | 0.308
* CCCCCN1CC=CC23O[C@@H]4/C=C\CCC(C)OC(=O)C4[C@H]2C(=O)N(C(C)CO)[C@@H]3C1=O (some centres undefined) | 0.355
* CC(C)C[C@@H]1NC(=O)[C@H](C(C)C)NC(=O)[C@@]23C(=O)N[C@@H](Cc4ccccc4)C2[C@H](C)[C@@]2(C)O[C@H]2C3/C=C/CC/C=C/CNC1=O (some centres undefined) | 0.771
* O=C1C[C@@](C(=O)NCCN2CCOCC2)(c2ccc([N+](=O)[O-])cc2)[C@@H](c2ccc(CO)cc2)N1CC12CC3CC(CC(C3)C1)C2 | 0.548
* COCCOC(=O)N1C(=O)[C@@]2(c3cc(C#CCCO)ccc31)[C@H](C(N)=O)[C@H]1C(=O)O[C@H](c3ccccc3)[C@H](c3ccccc3)N1[C@@H]2c1ccc(O)cc1 | -0.0317
* C=CC[C@]1(C(=O)NCCCOC)N=C(c2ccc(OCCCO)cc2)O[C@H]1c1ccccc1CN=[N+]=[N-] | 0.424
* C=C(/C(=C/C[C@H](OC(C)=O)c1ccccc1OCCO)c1cnc2ccccc2c1)C(C)C | 0.724
